TARGET_OF_ASSAY: Macrophage colony-stimulating factor 1 receptor (Homo sapiens, UniProt P07333)
Sequence (P07333 whole entry): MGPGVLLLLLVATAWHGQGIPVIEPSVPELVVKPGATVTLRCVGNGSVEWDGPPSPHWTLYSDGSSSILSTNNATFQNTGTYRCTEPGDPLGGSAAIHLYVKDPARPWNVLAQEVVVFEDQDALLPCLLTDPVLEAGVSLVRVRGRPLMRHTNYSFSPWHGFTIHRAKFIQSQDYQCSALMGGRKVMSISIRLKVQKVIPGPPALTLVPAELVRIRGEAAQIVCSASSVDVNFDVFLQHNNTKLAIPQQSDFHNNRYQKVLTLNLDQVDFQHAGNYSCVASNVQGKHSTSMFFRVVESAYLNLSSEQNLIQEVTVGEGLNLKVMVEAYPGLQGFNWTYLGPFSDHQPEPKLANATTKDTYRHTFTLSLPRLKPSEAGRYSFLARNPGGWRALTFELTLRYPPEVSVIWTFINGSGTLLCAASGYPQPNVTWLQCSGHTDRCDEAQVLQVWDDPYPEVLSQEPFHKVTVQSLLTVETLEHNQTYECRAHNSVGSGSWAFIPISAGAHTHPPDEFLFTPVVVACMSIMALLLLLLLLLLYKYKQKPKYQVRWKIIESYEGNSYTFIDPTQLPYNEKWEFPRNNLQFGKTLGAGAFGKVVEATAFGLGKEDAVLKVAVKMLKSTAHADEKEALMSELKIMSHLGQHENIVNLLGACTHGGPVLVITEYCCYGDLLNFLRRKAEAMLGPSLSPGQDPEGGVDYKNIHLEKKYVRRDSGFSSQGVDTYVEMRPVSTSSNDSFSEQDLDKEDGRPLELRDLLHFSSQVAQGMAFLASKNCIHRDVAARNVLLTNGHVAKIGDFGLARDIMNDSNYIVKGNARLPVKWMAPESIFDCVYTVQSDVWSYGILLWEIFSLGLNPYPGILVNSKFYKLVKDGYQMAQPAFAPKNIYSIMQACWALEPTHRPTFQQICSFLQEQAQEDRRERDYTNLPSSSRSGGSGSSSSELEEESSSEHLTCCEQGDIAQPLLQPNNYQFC
METHOD_DESCRIPTION: Inhibition of ATP-induced autophosphorylation of cFMS tyrosine kinase in HEK 293 cells
Format: cell-based, HEK293
PARAMETER_MEASURED: pIC50
Hey, just a heads up that pIC50 is the negative log base 10 of the concentration in molar.

# COMPOUND, PARAMETER_MEASURED, RECORDED_MEASUREMENT
records = [
    ("O=C(Nc1ccccc1N1CCC(CCO)CC1)c1ccc([N+](=O)[O-])o1", "pIC50", 6.64),
    ("O=C(Nc1ccccc1N1CCC(O)CC1)c1ccc([N+](=O)[O-])o1", "pIC50", 6.43),
    ("N#Cc1ccc(C(=O)Nc2cc(CN=C(N)N)ccc2N2CCCCC2)o1", "pIC50", 5.59),
    ("O=C(Nc1ccccc1N1CCC(CO)CC1)c1ccc([N+](=O)[O-])o1", "pIC50", 5.85),
    ("CS(=O)(=O)NCc1ccc(N2CCCCC2)c(NC(=O)c2ccc(C#N)o2)c1", "pIC50", 6.51),
    ("N#Cc1ccc(C(=O)Nc2cc(N3CCCCC3)ccc2N2CCCCC2)o1", "pIC50", 7.12),
    ("N#Cc1ccc(C(=O)Nc2ccccc2N2CCCCC2)o1", "pIC50", 6.43),
    ("CC1CCCN(c2ccccc2NC(=O)c2ccc([N+](=O)[O-])o2)C1 (stereo not given)", "pIC50", 5.66),
    ("N#Cc1ccc(C(=O)Nc2cc(C=O)ccc2N2CCCCC2)o1", "pIC50", 6.48),
    ("N#Cc1c[nH]c(C(=O)Nc2ccccc2N2CCCCC2)c1", "pIC50", 6.82),
]

What does the data say about its pIC50? Entry: COc1ccc(N2CCCCC2)c(NC(=O)c2ccc(C#N)o2)c1 6.02

What does the data say about its pIC50? Entry: N#Cc1ccc(C(=O)Nc2cc(COCC(O)CO)ccc2N2CCCCC2)o1 (stereo not given) 6.77

What does the data say about its pIC50? Entry: N#Cc1ccc(C(=O)Nc2cc(CO)ccc2N2CCCCC2)o1 6.72

What does the data say about its pIC50? Entry: CC1CCN(c2ccccc2NC(=O)c2ccc([N+](=O)[O-])o2)CC1 6.52

What does the data say about its pIC50? Entry: O=C(Nc1ccccc1N1C=CC=CC=C1)c1ccc([N+](=O)[O-])o1 5.70

What does the data say about its pIC50? Entry: N#Cc1ccc(C(=O)Nc2cc(O)ccc2N2CCCCC2)o1 5.57

What does the data say about its pIC50? Entry: N#Cc1ccc(C(=O)Nc2cc(CN)ccc2N2CCCCC2)o1 5.51

What does the data say about its pIC50? Entry: N#Cc1ccc(N2CCCCC2)c(NC(=O)c2ccc(C#N)o2)c1 6.12

What does the data say about its pIC50? Entry: O=C(Nc1ccccc1N1CCCCC1)c1cc([N+](=O)[O-])c[nH]1 6.74
